Values compiled from PubChem BioAssay (NCI).

Listing of entries alongside the reported growth inhibition.
- Test description: NCI Yeast Anticancer Drug Screen. Data for the mec2-1 strain (AID 157)
- Stated conditions: S. cerevisiae mec2-1 strain, at 50.0 µM, hits give high values
Compounds without any hit were thinned out: in the full panel of roughly 79,000, 15% have a hit.
Record the value in %, omitting the unit from your answer.

C=CC1CNCCC1CCC(=O)c1ccnc2ccc(OC)cc12 (centres undefined) = -9.6
[N-]=[N+]=NC[C@H]1OCO[C@H](CN=[N+]=[N-])[C@H]2OCCOCCOc3ccccc3OCCOCCO[C@@H]21 = -9.65
O=S(=O)(O)CC(NCc1ccccc1)c1ccccc1 (centres undefined) = -0.45

Turning now to a further record.
Ask: I'd like to know its growth inhibition. The molecule in question is CC1(C)N=C(N)N=C(N)N1c1ccc(C(F)(F)F)cc1
Result: 10.1

----------
Listing of entries alongside the reported growth inhibition.
- Test description: NCI Yeast Anticancer Drug Screen. Data for the mlh1 rad18 strain (AID 175)
- Stated conditions: S. cerevisiae mlh1 rad18 strain growth inhibition; at 50.0 µM; hits give high values
About 79,000 compounds went through this panel and 15% of them were active in at least one assay; those are over-represented in the sample as a whole.
Record the value in %, omitting the unit from your answer.

O=C(O)CNC(=O)CNC(=O)C(CCC(=O)OCc1ccccc1)NC(=O)OCc1ccccc1 (stereo not given) = 15.2

Ask: I'd like to know its growth inhibition. The molecule in question is CC1CCCN(C(=O)Nc2ccc([N+](=O)[O-])cc2)C1 (stereo not given)
Result: 43.8

Ask: I'd like to know its growth inhibition. The molecule in question is C1=CCSC(Nc2ccccc2)=NC1
Result: -5.85

Ask: I'd like to know its growth inhibition. The molecule in question is N#CC(C(=O)O)C(c1cccc2ccccc12)c1cccc2ccc3ccccc3c12 (stereo not given)
Result: 13.8

Ask: I'd like to know its growth inhibition. The molecule in question is O=C(N/N=C\c1cccnc1)Nc1ccc(N=Nc2ccccc2)cc1
Result: 23.1

----------
Listing of entries alongside the reported growth inhibition.
- Test description: NCI Yeast Anticancer Drug Screen. Data for the mlh1 rad18 strain (AID 175)
- Stated conditions: S. cerevisiae mlh1 rad18 strain growth inhibition; at 50.0 µM; hits give high values
The panel holds about 79,000 compounds, 15% with a hit somewhere; the sample as a whole holds those more often.
Record the value in %, omitting the unit from your answer.

Here is how some compounds turned out for growth inhibition.
ClC(Cc1ccccc1)(c1ccccc1)c1ccccc1 = -3.6
NC12CC3CC(C1)CC(Cl)(C3)C2 = 4.1
CCOc1ccc(NC=O)cc1 = -11.3
CCOC(=O)c1c(Cl)c(CC)c(Cl)n2c1nc1ccccc12 = 4.05
N/N=C1/CCCc2nonc21 = -48.4
O=C(C(c1ccccc1)C(F)(F)F)N1CCCC1 (stereo not given) = 0.6
CC(NC(=O)C(N)CC(=O)O)NC(=O)N(C)C(C)(C)C (stereo not given) = -44.2
NC(CSS(=O)(=O)O)=NCC1CC2CCC1C2 (stereo not given) = 12.3

Ask: I'd like to know its growth inhibition. The compound in question is CC(C)CNCCCC(C)Nc1ccnc2cc(Cl)ccc12 (stereo not given)
Result: -9.65

Ask: I'd like to know its growth inhibition. The compound in question is COc1ccccc1/C=C(\C)C(=O)O
Result: -16.1

----------
- Test description: NCI Yeast Anticancer Drug Screen. Data for the cln2 rad14 strain (AID 165);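 also: 0% = growth equal to vehicle treated cultures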
- Stated conditions: S. cerevisiae cln2 rad14 strain, at 50.0 µM, hits give high values
This is part of a sample that, as a whole, favours compounds with a hit. Of some 79,000 tested, about 15% had one in any assay. Where a SMILES comes first, the peptide text is derived from it. Bridges are numbered along the chain shown (N, C = ends). Roman numbers before positions name the chains, in order. The star is where a group is joined. Cbz = O=C(OCc1ccccc1)*
Listing of entries alongside the reported growth inhibition.
Record the value in %, omitting the unit from your answer.

Here is how some compounds turned out for growth inhibition.
CN(Cc1cnc2nc(N)nc(N)c2n1)c1ccc(C(=O)NC(CCCCN)C(=O)O)cc1 (stereo not drawn) = -15.8
CCOC(=O)NC(=S)C1=C(N2CCOCC2)CCC1 = 7.25
Sc1ccc2ccccc2c1 = -38.4
O=C1Cn2c(c3c(nc2=O)CCCC3)N1 = -13.7
O=C(O)C(=Cc1ccc(Br)cc1)C(=O)O = 20.8
C=CCNC(=O)C1C2C=CC(C2)C1C(=O)NCC=C (stereo not drawn) = -4.85
CC(C)NC(N)=O = 19.1
CCCCCC[C@@H](O)C/C=C\CCCCCCCC(=O)OCC(C)O (stereo partly drawn) = -30.6
Cc1ccc(C(=O)OCC2OC(Cl)CC2OC(=O)c2ccc(C)cc2)cc1 (stereo not drawn) = -36
CCOC1(c2ccccc2)NC(=O)NC1(OCC)c1ccccc1 (stereo not drawn) = -20.1

Ask: I'd like to know its growth inhibition. The compound in question is OC(CN1CCc2ccccc2C1)c1ccccc1 (stereo not drawn)
Result: 27

Ask: I'd like to know its growth inhibition. The compound in question is CC(C)C(NC(=O)C(CSSCC(NC(=O)OCc1ccccc1)C(=O)NC(C(=O)O)C(C)C)NC(=O)OCc1ccccc1)C(=O)O (stereo not drawn) (I: Cbz-Cys-Val-OH / II: Cbz-Cys-Val-OH; disulfide I:1-II:1; configuration not given here)
Result: -3.25

Ask: I'd like to know its growth inhibition. The compound in question is O=[N+]([O-])c1ccc2nc(NCCCO)c3ccccc3c2c1
Result: -0.9

Ask: I'd like to know its growth inhibition. The compound in question is Nc1cc(=O)n(C2OC(CO)C(O)C2O)cn1 (stereo not drawn)
Result: -39.4

Ask: I'd like to know its growth inhibition. The compound in question is C[N+](C)(C)CCOC(=O)/C=C/c1cnc[nH]1
Result: 23.6

Ask: I'd like to know its growth inhibition. The compound in question is CCO/C(C)=C(/C(C)=O)C(=O)NC1CCCCC1
Result: 9.75

Ask: I'd like to know its growth inhibition. The compound in question is O=C1c2cccc([N+](=O)[O-])c2C(=O)c2cccc(Cl)c21
Result: -17.9

Ask: I'd like to know its growth inhibition. The compound in question is COC(=O)c1ccc(C2CCC(OC(c3ccccc3)c3ccccc3)CC2)cc1 (stereo not drawn)
Result: -23.6

----------
- Test description: NCI Yeast Anticancer Drug Screen. Data for the sgs1 mgt1 strain (AID 161);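 also: 0% = growth of cultures given vehicle only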
- Stated conditions: S. cerevisiae sgs1 mgt1 strain, at 50.0 µM, hits give high values
Compounds without any hit were thinned out: in the full panel of roughly 79,000, 15% have a hit.
Measurement kind: growth inhibition (%)
Record the value in %, omitting the unit from your answer.

Here is how some molecules turned out for growth inhibition.
CCCCCCCC(CCCCCCC)(C(=O)OCC)C(=O)OCC = 9.1
OCCSCCCSCCO = -23
CCOC(=O)CCCCCCCCCCCCC1C=CCC1 (stereo not given) = -3.45
CCCCCCCCCCCCCCCC(=O)Oc1ccc(C(=S)N2CCOCC2)cc1 = 2.4

Ask: I'd like to know its growth inhibition. The molecule in question is CC(C)(C)NC(=S)NC1CC2CC1C1Cc3ccccc3C21 (stereo not given)
Result: 22.9

----------
- Test description: NCI Yeast Anticancer Drug Screen. Data for the mec2-1 strain (AID 157)
- Stated conditions: S. cerevisiae mec2-1 strain, at 50.0 µM, hits give high values
This is part of a sample that, as a whole, favours compounds with a hit. Of some 79,000 tested, about 15% had one in any assay.
Listing of entries alongside the reported growth inhibition.
Record the value in %, omitting the unit from your answer.

CCCCCCCCC/C=C\C(=O)O = -12.5
CCCCOC(=O)COc1ccc2c(C)c(CCN(CC)CC)c(=O)oc2c1 = -34.1
CCCC(/C=N/Nc1ccc([N+](=O)[O-])cc1[N+](=O)[O-])=C\c1ccccc1 = -29.2
CC(=O)OCC1OC(n2nc(/C=C/c3ccco3)c(=O)n(-c3ccccc3)c2=S)C(OC(C)=O)C(OC(C)=O)C1OC(C)=O (stereo unspecified) = 14.8
Cc1cc(N(CCCOS(C)(=O)=O)CCCOS(C)(=O)=O)ccc1C=Nc1cc(Cl)c(O)c(Cl)c1 = 21.4

Turning now to a further record.
Ask: I'd like to know its growth inhibition. The compound in question is O=S(=O)(O)CCNC(=S)C(=S)NCCS(=O)(=O)O
Result: 14.2

----------
- Test description: NCI Yeast Anticancer Drug Screen. Data for the rad50 strain (AID 155);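 also: 0% = growth of vehicle-only cultures of the same strain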
- Stated conditions: S. cerevisiae rad50 strain growth inhibition; at 50.0 µM; hits give high values
The panel holds about 79,000 compounds, 15% with a hit somewhere; the sample as a whole holds those more often.
Listing of entries alongside the reported growth inhibition.
Record the value in %, omitting the unit from your answer.

CCCCNS(=O)(=O)c1ccc(C)cc1 = -24.6

Ask: I'd like to know its growth inhibition. The molecule in question is CN(C)C=Nc1cccc2cnccc12
Result: 24.7

Ask: I'd like to know its growth inhibition. The molecule in question is CCC(C(=O)O)(C(C)C)C(C)C
Result: 5.8

Ask: I'd like to know its growth inhibition. The molecule in question is CCc1nnc(N)o1
Result: -14.8
